target: r5-HT7 receptor (Rattus norvegicus (Rat), UniProt P32305); assay: HitHunter cAMP assay, antagonist testing against 100 nM 5-CT; assay type: cell-based; conditions: antagonist testing, 100 nM 5-CT challenge, HEK-293 r5-HT7; read-out: R5HT7 cAMP pKb (converted)
Sequence (P32305 1-435): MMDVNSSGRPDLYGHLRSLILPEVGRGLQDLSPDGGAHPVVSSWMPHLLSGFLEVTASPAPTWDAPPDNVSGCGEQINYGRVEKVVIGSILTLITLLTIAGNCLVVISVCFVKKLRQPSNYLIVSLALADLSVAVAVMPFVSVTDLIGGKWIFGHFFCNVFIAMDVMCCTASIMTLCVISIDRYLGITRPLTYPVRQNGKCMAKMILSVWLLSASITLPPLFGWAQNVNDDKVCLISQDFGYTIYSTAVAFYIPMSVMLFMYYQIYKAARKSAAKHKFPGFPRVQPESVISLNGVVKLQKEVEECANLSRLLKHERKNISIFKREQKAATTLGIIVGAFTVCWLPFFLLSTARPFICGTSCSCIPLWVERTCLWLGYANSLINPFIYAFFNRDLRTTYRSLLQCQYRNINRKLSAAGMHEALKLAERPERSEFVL
Where a name gives a salt, the structure may show the parent alone.
# Lookup of reported Kb keyed by entry
# value in nM; strip the unit string

>  <COMPOUND>
CN1CC(Oc2cc(F)ccc2OCc2cccc(Cl)c2)C1 [Example 203]

>  <EXPERIMENTAL VALUE>
20

$$$$
>  <COMPOUND>
Fc1ccc(COc2ccc(Cl)cc2OC2CNC2)cc1 [Example 25, hydrochloride]

>  <EXPERIMENTAL VALUE>
39.8

$$$$
>  <COMPOUND>
Clc1ccc(OCc2ccccc2Cl)c(OC2CNC2)c1 [Example 35]

>  <EXPERIMENTAL VALUE>
1000

$$$$
>  <COMPOUND>
FC(F)(F)c1ccc(COc2ccc(Cl)cc2OC2CCNCC2)o1 [Example 63, hydrochloride]

>  <EXPERIMENTAL VALUE>
25.1

$$$$
>  <COMPOUND>
Clc1cccc(Oc2ccc(Cl)cc2OC2CNC2)c1 [Example 257, maleate]

>  <EXPERIMENTAL VALUE>
501

$$$$
>  <COMPOUND>
Clc1ccc(COc2ccc(Cl)cc2OC2CNC2)cc1 [Example 36, trifluoroacetate]

>  <EXPERIMENTAL VALUE>
794

$$$$
>  <COMPOUND>
Cc1nc(COc2ccc(Cl)cc2OC2CNC2)cs1 [Example 29]

>  <EXPERIMENTAL VALUE>
126

$$$$
>  <COMPOUND>
N#Cc1cccc(COc2ccc(Cl)cc2OC2CNC2)c1 [Example 34]

>  <EXPERIMENTAL VALUE>
39.8

$$$$

-- ask Annotate the compound FC(F)(F)c1cc(COc2ccc(Cl)cc2OC2CNC2)ccc1Cl [Example 49] with its measured Kb.
-- reply 25.1

-- ask Find the measured Kb of CN1CC(Oc2cc(Cl)ccc2OCc2cccc(Cl)c2)C1 [Example 38] and report it.
-- reply 10

-- ask Assign Kb to the following record: Clc1ccc(OC2CCc3ccc(Cl)cc32)c(OC2CNC2)c1 (racemic) [Example 159]
-- reply 7.94

-- ask Supply reported Kb belonging to this compound: Fc1cccc(COc2ccc(Br)cc2OC2CNC2)c1 [Example 17]
-- reply 50.1

-- ask Could you please provide reported Kb for O=C(c1ccc2ccccc2c1)c1ccc(Br)cc1OC1CNC1 [Example 287] ? Thanks!
-- reply 63.1

-- ask Read the entry Brc1ccc(OC2Cc3ccccc3C2)c(OC2CNC2)c1 [Example 174] and write its reported Kb.
-- reply 6.31
